# PROTOCOL_SUMMARY: Enzyme kinetics of M1 formation
# Type: in vitro ADME, human
# TEST_CONDITIONS: human, human intestinal microsomes (pooled and nine individual HIM), pH 7.4, total intrinsic clearance [CL′int(1) + CL′int(2)] of M1 formation, range, HIM

COMPOUND_STRING | microsomal CLint
CONC(=N)c1ccc(-c2ccc(-c3ccc(C(=N)NOC)cc3)o2)cc1 | 10 to 730 µL/min/mg

* * *

# PROTOCOL_SUMMARY: Enzyme kinetics of M1 formation
# Assay type: in vitro ADME, human
# TEST_CONDITIONS: human, human intestinal microsomes (individual HIM 32), pH 7.4, CL′int(1), M1 formation, HIM 32; Vmax(1)/KMapp(1)

COMPOUND_STRING | microsomal CLint [µL/min/mg]
CONC(=N)c1ccc(-c2ccc(-c3ccc(C(=N)NOC)cc3)o2)cc1 | 730

* * *

# Test system: pooled HIM
# PROTOCOL_SUMMARY: Phase I biotransformation of DB289 in pooled HIM
# Type: in vitro ADME, human
# TEST_CONDITIONS: 10 μM DB289, pooled HIM 0.2 mg/ml, NADPH, up to 120 min

MOLECULE | Phase I metabolite detection (HPLC/UV)
N=C(N)c1ccc(-c2ccc(-c3ccc(C(=N)N)cc3)o2)cc1 [DB75, 2,5-bis(4-amidinophenyl) furan] | not detected
CON=C(N)c1ccc(-c2ccc(-c3ccc(C(N)=NO)cc3)o2)cc1 [M1] | identified
N=C(N)c1ccc(-c2ccc(-c3ccc(C(N)=NO)cc3)o2)cc1 [M4] | not detected
NC(=NO)c1ccc(-c2ccc(-c3ccc(C(N)=NO)cc3)o2)cc1 [M2] | identified
CON=C(N)c1ccc(-c2ccc(-c3ccc(C(=N)N)cc3)o2)cc1 [M3] | identified

Origin of the recorded values: paper PMC2364724
